testedTarget: CDK1/CCNB1 (Homo sapiens, UniProt P06493)
Sequence (P06493 whole entry): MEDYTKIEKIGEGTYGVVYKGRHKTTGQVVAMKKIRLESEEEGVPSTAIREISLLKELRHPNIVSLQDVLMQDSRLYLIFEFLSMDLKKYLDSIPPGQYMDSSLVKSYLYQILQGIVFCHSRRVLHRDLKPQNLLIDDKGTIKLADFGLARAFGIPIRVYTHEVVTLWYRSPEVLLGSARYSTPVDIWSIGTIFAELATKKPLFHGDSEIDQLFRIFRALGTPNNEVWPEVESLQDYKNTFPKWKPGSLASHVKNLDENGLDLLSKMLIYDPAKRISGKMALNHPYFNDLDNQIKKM
Sequence (P14635 whole entry partner): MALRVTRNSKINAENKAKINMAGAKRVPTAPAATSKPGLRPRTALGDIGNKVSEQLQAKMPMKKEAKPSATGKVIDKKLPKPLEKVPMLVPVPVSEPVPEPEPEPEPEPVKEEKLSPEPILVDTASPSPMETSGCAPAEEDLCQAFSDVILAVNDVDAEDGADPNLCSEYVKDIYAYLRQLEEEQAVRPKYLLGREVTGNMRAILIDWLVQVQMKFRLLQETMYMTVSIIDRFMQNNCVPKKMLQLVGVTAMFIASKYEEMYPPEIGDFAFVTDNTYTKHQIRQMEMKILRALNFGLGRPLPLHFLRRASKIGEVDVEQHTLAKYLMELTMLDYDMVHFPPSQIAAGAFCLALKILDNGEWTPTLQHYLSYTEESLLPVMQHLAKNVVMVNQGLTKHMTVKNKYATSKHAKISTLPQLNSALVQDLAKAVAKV
assayInfo: CDK1 homogeneous time-resolved fluorescence (HTRF) kinase assay
Format: biochemical
conditionParameters: >250 nM; CDK1/CCNB; read-out: CDK1/CCNB IC50 >250 nM
endpoint: IC50

// query # input compound: COc1cc(N2CCOCC2)nc(NS(=O)(=O)c2ccc(Nc3cc4c(-c5ccc6c(cnn6CC(O)(C(F)(F)F)C(F)(F)F)c5C)nccc4cn3)cc2)n1 ; wanted: its IC50
// result > 0.25 µM

// query Next: COc1cnc(NS(=O)(=O)c2ccc(Nc3cc4c(-c5ccc6c(cnn6CC(O)(C(F)(F)F)C(F)(F)F)c5C)nccc4cn3)cc2)nc1N1CCOCC1
// result > 0.25 µM

// query Next: Cc1c(-c2nccc3cnc(Nc4ccc([S@](C)(=N)=O)cc4)cc23)ccc2c1cnn2CC(O)(C(F)(F)F)C(F)(F)F
// result > 0.25 µM
